Taken from ChEMBL document CHEMBL1201862.

- Tested on: Malme-3M
- assay-overview: NCI tumour cell line growth inhibition, 48 h
Calls of active or inactive are those of the source. Rule as the data show it: active = GI50 up to about 1.1 µM and inactive = higher.
Bench note: report the call from active, inactive

These solved cases illustrate the format of a correct answer.
# input Answer briefly: the call reported for CCCCCCCCCCCCCCCCCCOCC(O)COP(=O)(O)OCC1OC(n2cc(F)c(=O)[nH]c2=O)CC1O (stereo unspecified) in this assay.
# output inactive

# input Answer briefly: the call reported for "O=C(NC/C=C/CO)c1ccccc1" in this assay.
# output inactive

# input Answer briefly: the call reported for "O=c1[nH][nH]c(=O)n1Cc1ccccc1Cn1c(=O)[nH][nH]c1=O" in this assay.
# output inactive

# input Answer briefly: the call reported for "CC(C)NCCCNc1c2ccccc2nc2cccc([N+](=O)[O-])c12" in this assay.
# output active

Further cases:
# input Answer briefly: the call reported for "Fc1cccc2nc(-c3ccccc3)cc(OCc3ccccc3)c12" in this assay.
# output inactive

# input Answer briefly: the call reported for "O=C1C(=O)N(c2ccc(Cl)cc2)C(=O)C(=O)C1c1nc2ccccc2o1" in this assay.
# output inactive
